System: OVCAR-5 ovarian
Assay: NCI-60 one-dose screen, 48 h
Settings: 10 µM
Compounds without any hit were thinned out: in the full panel of roughly 83,000, 20% have a hit. Calls of active or inactive are those of the source. How the source made its calls: active means growth percent below 10; inactive means the rest.
Select the correct class. Options are t (active), f (inactive) and nothing else.

What did the test return for "COc1cccc(C(=O)Nc2ccc(CN3CCc4nc5cc(OC)c(OC)cc5cc43)cc2)c1" ? f

Any idea what this test logged for "N#CCCN(NC(=O)OCc1ccccc1)C(=O)OCc1ccccc1" ? f

Hey, what did the test say about "Cc1ccc2oc3nc(C)c(C(=O)NCc4ccccc4)cc3c(=O)c2c1" ? f

Record lookup: outcome of this test for CCN(CC)CCC(CNc1c(C)cnc2cc(Cl)ccc12)c1ccc(Cl)c(Cl)c1 (stereo unspecified) ? f

Record lookup: outcome of this test for "CN(C)CCN1C(=O)c2cccc3c(-c4ccc5ncn(C6CCCCC6)c5c4)ccc(c23)C1=O" ? f

Could you check what this test reported for "COc1cccc(Cn2c(-c3nonc3N)nc3ccccc32)c1" ? f

What did this assay record as the result for "N#Cc1cc(-c2cc3ccccc3o2)oc1N" ? f

Hi, sorry to bother you, what did the test record for "CC(=O)n1c(-c2ccc(Cl)c(Cl)c2)cn(-c2ccc(Cl)cc2)c1=O" ? f

Hey, what did the test say about Clc1ccc(/C=C2\CCCC3=C2N=C2SC=NN2C3c2ccc(Cl)cc2)cc1 (stereo unspecified) ? f

Field: outcome | Entry: "O=C(Nc1ccncc1)C(=O)c1cn(S(=O)(=O)c2cccc(Cl)c2)c2ccccc12" f

Could you please tell me the result logged for "O=C1/C(=C/c2ccc([N+](=O)[O-])s2)Oc2ccccc21" in this assay? t

# lookup: test call for "C#Cc1ccc(-n2c(/C=C/c3ccc4ccccc4n3)nc3ncccc3c2=O)cc1" t

# outcome recorded in this test, key = "COc1ccc(-c2nnc(-c3c(-c4ccccc4)nc4ncccn34)o2)cc1OC" f

Lab log entry: "COc1cc(/C=C2\Oc3cc(OCC(=O)c4ccccc4)ccc3C2=O)cc(OC)c1OC" — outcome as called in the assay? f

# outcome recorded in this test, key = "CN(C)C=Nc1cc(Cl)ccc1Cl" f

Short answer needed: outcome of this test for "CCN(CC)CCC(=O)Nc1cccc2c1C(=O)c1c(c(O)c3ccccc3c1O)C2=O" ? f

// return assay outcome for "C#Cc1ccc(-n2c(/C=C/c3ccc(O)c(OC)c3)nc3ncccc3c2=O)cc1" f

Name the outcome recorded for "O=C(Nc1ccncc1)C(=O)c1cn(S(=O)(=O)c2cc(Cl)cc(Cl)c2)c2ccccc12" in the assay. f

Please state the recorded outcome for this compound: "CN(C)CCS(=O)(=O)CCN(C)C" f

What call does the record list for "COc1ccc(-c2cc(-c3cccc(NS(C)(=O)=O)c3)nc(N)c2C#N)cc1" ? f

How did this test come out for "CC1(C)CCC(=NNC(N)=S)CC1" ? f

For "NC(=O)c1ccc(-c2cccc3c(=O)nc(N4CCOCC4)oc23)cc1" , what call appears in the results of this test? f

Call for entry CCCCCCCCCCCCCCCCN(C(C)c1ccccc1)S(=O)(=O)c1ccc(OC)c(N)c1 (stereo unspecified) : f

Could you please tell me the result logged for "CC/C(=C(/c1ccc(OCCN(C)C)cc1)c1ccc(OC(=O)CCCCC(=O)c2c(C)[nH]c(/C=C3\N=C(c4ccc[nH]4)C=C3OC)c2C)cc1)c1ccccc1" in this assay? f

Hey, what did the test say about COc1cc2c(cc1OC)N(CCO)C1=C(C(=O)OC1)C2c1ccc(Cl)c(Cl)c1 (stereo unspecified) ? f

What did the test return for CCCCCCCCCCCCC1C/C=C\CCCC(=O)O1 (stereo unspecified) ? f
